Every entry's value here was drawn from ChEMBL document CHEMBL1201862.

System: SF-539
Assay: NCI tumour cell line growth inhibition, 48 h
Activity calls are given as the source filed them. No stated cut-off is given here; in the data, active = GI50 up to about 1.1 µM and inactive = higher.
Classes used: active, inactive

{"compound": "CCCCCC[C@@H]1CCC2C(CO)[C@@H](O)CC[C@@H]2C1 (stereo partly drawn)", "label-value": "inactive"}
{"compound": "CSC(C1c2ccccc2N(c2ccc(C)cc2)C2=NC(=O)N(C)C(=O)C21Cl)S(=O)(=O)c1ccc(C)cc1 (stereo not drawn)", "label-value": "inactive"}
{"compound": "c1ccc2c(Cc3[nH]c4ccccc4c3Cc3c[nH]c4ccccc34)c[nH]c2c1", "label-value": "inactive"}
{"compound": "O=[N+]([O-])/C(C(Cl)=C(Cl)Cl)=C(\\Nc1ccccc1)n1nnc2ccccc21", "label-value": "inactive"}
{"compound": "CCCCCCC(=O)OC[n+]1cccc(-c2c(COC(=O)NC(C)C)c(COC(=O)NC(C)C)c3n2CCC3)c1", "label-value": "inactive"}
{"compound": "CCOC(=O)C(NC(=O)CC)(N1CCN(c2cc3c(cc2F)c(=O)c(C(=O)O)cn3C2CC2)CC1)C(F)(F)F (stereo not drawn)", "label-value": "inactive"}
{"compound": "COc1ccc(Cn2c3c(cc(OC(C)=O)c2=O)Cc2ccccc2-3)cc1", "label-value": "inactive"}
{"compound": "COc1cc(C(=O)N(C(=S)OCc2ccccn2)c2ccccc2)cc(OC)c1OC", "label-value": "inactive"}
{"compound": "Cc1ccc(S(=O)(=O)NC(CCC(=O)NNc2ccccc2)C(=O)NNc2ccccc2)cc1 (stereo not drawn)", "label-value": "inactive"}
{"compound": "c1ccc2c(c1)CCc1c-2n(CCN2CCOCC2)c2ccccc12", "label-value": "inactive"}
{"compound": "COC(=O)C1C(O)C(C)C(O)C(C)(O)C=C(C)C2=C3C(=C(C)C(=O)c4c(O)c(c(C)c(OC(C)=O)c43)NC(=O)C(C)=C/C=C\\C(C)(O)C(O)C(C)C1O)OCO2 (stereo not drawn)", "label-value": "inactive"}
{"compound": "COC1C=COC2(C)Oc3c(C)c(O)c4c(O)c(c(C5SCCS5)c(O)c4c3C2=O)NC(=O)/C(C)=C\\C=CC(C)C(O)C(C)C(O)C(C)C(OC(C)=O)C1C (stereo not drawn)", "label-value": "inactive"}
{"compound": "CCOC(=O)c1c(/C=N\\Nc2ccccc2)nc2ccccc2c1-c1ccccc1", "label-value": "inactive"}
{"compound": "COc1cc2c(/C=C3/C(=O)Nc4ccccc43)c(Cl)n(Cc3ccc(Cl)cc3)c2cc1C", "label-value": "active"}
{"compound": "O=C1NC(=S)N(c2ccccc2)C1=O", "label-value": "inactive"}
{"compound": "COc1ccc2c(c1)N(CCC1CCCCN1C)c1ccccc1S2 (stereo not drawn)", "label-value": "inactive"}
{"compound": "Cc1c(-c2ccccc2)c(=O)oc2ccc(Cl)cc12", "label-value": "inactive"}
{"compound": "O=C1C(Cl)C2(CC(/C=C/c3ccccc3Cl)=NN2c2cccc(S(=O)(=O)O)c2)N1c1nc2ccccc2s1 (stereo not drawn)", "label-value": "inactive"}

###

System: SN12C
Assay: NCI tumour cell line growth inhibition, 48 h
Activity calls are given as the source filed them. No stated cut-off is given here; in the data, active = GI50 up to about 1.1 µM and inactive = higher.
Classes used: true (active), false (inactive)

{"molecule": "CC(=O)OC1C(Oc2c(C)cc3c(c2O)[C@@H](C)CC[C@@H]3[C@@H](C)CCC=C(C)C)OCC(O)C1O (stereo not given in full)", "target-or-system": "SN12C", "label-value": "false"}
{"molecule": "CS(=O)(=O)CS(=O)(=O)OCCCl", "target-or-system": "SN12C", "label-value": "false"}
{"molecule": "CC(=O)Oc1ccc(/C=C/C(=O)NCC(NC(=O)/C=C/c2ccc(OC(C)=O)c(OC(C)=O)c2)C(=O)O)cc1OC(C)=O (stereo not given)", "target-or-system": "SN12C", "label-value": "false"}
{"molecule": "Nc1ccn(C2OC(COP(=O)(O)O)C(O)C2O)c(=O)n1 (stereo not given)", "target-or-system": "SN12C", "label-value": "false"}
{"molecule": "COC1CC(n2cc(F)c(N)nc2=O)OC1CO (stereo not given)", "target-or-system": "SN12C", "label-value": "false"}
{"molecule": "Cc1nc2ccc(S(=O)(=O)Nc3ccccc3)cc2c(=O)n1NC(=O)CNc1ccccc1", "target-or-system": "SN12C", "label-value": "false"}
{"molecule": "FC(F)(F)c1ccc(C2=N/S(c3ccccc3)=N\\C(c3ccc(C(F)(F)F)cc3)=N/S(c3ccccc3)=N\\2)cc1 (stereo not given)", "target-or-system": "SN12C", "label-value": "false"}
{"molecule": "CCCCn1cnc2c(SC)ncnc21", "target-or-system": "SN12C", "label-value": "false"}
{"molecule": "Cc1cc2c(C)n[nH]c2c(C(=O)O)c1C", "target-or-system": "SN12C", "label-value": "false"}
{"molecule": "COc1cc(C(=O)/C=C/c2ccc(OCC#N)cc2)cc(OC)c1OC", "target-or-system": "SN12C", "label-value": "false"}
{"molecule": "CC(C)(C)OC(=O)C1=C(N)N(Cc2ccccc2)C2(C)C=CC(=O)C=C12 (stereo not given)", "target-or-system": "SN12C", "label-value": "false"}
{"molecule": "N#CC(C(=O)C(=O)C(C#N)c1ccc(Br)cc1)c1ccc(Br)cc1 (stereo not given)", "target-or-system": "SN12C", "label-value": "false"}
{"molecule": "COc1ccc2c[n+](C)c3c4cc(OC)c(OC)cc4ccc3c2c1", "target-or-system": "SN12C", "label-value": "false"}
{"molecule": "CSC(C1c2ccccc2N(c2ccc(C)cc2)C2=NC(=O)N(C)C(=O)C21Cl)S(=O)(=O)c1ccc(C)cc1 (stereo not given)", "target-or-system": "SN12C", "label-value": "false"}
{"molecule": "COC(=O)c1c2c(cc3c1CC1(Cc4ccccc4C1=O)C3)CCC2 (stereo not given)", "target-or-system": "SN12C", "label-value": "false"}
{"molecule": "CC(=O)c1ccc2c3c1O[C@H]1c4[nH]c5ccccc5c4C[C@@]4(O)[C@@H](C2)N(CC2CC2)CC[C@]314", "target-or-system": "SN12C", "label-value": "false"}
{"molecule": "CO[C@H]1SC[C@H](OC(C)=O)[C@H](OC(C)=O)[C@H]1OC(C)=O", "target-or-system": "SN12C", "label-value": "false"}
{"molecule": "Cc1occ2c1C(=O)CC1C2[C@@H](O)CC2C(C)(C)CCC[C@]12C (stereo not given in full)", "target-or-system": "SN12C", "label-value": "false"}
{"molecule": "O=C1c2ccccc2-c2nnc3c(c21)-c1ccccc1C3", "target-or-system": "SN12C", "label-value": "false"}
{"molecule": "CN(C)c1ccc(/C=c2/c3ccccc3n3c2cc(NC(=O)NCCC[N+](C)(C)C)[n+]3C)cc1", "target-or-system": "SN12C", "label-value": "true"}
